Reference source for all entries: the supplement of paper PMC10567573

B1: SASS6 (parent)
chain: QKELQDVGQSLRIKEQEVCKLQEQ

Variants of: B1
assay.notes: protein stability index of a GFP-peptide fusion (GPS, HEK-293T) (PSI 1-6); higher = more stable;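 further: lentivirally expressed fusions sorted by FACS into six bins by GFP to DsRed ratio, PSI derived from sequencing read proportions per bin multiplied by bin number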
particulars: c terminus: a fixed tail appended
recorded.metric: protein stability index
Keep the answer to the number alone.

> print(dat)
    mutant.label  data.value
 1          L11T        5.67
 2          K20F        4.31
 3          Q24D        5.04
 4           L4F        5.11
 5          V18Q        5.54
 6          Q22R        5.07
 7          E23H        5.02
 8           Q1K        5.22
 9           E3S         5.1
10           Q9S        4.47

Determine from records and report protein stability index for G8Y
4.18

Determine from records and report protein stability index for K14A
5.04

Determine from records and report protein stability index for Q1P
4.91

Determine from records and report protein stability index for C19H
5.61

Determine from records and report protein stability index for E17H
5.02
